# System: Diabrotica balteata (corn root worm)
# protocol-summary: Insecticidal action against Diabrotica balteata (corn root worm), sprayed maize sprouts
# Format: in vivo
# test-conditions: 96 h, application rate of 200 ppm, L2 larvae, 4 days after infestation
# Description: Maize sprouts, placed on an agar layer in 24-well microtiter plates were treated with aqueous test solutions prepared from 10,000 ppm DMSO stock solutions by spraying. After drying, the plates were infested with L2 larvae (6 to 10 per well). The samples were assessed for mortality 4 days after infestation.
measurement-kind: mortality at 200 ppm

Lab book: mortality at 200 ppm of "CCS(=O)(=O)c1cc(C(F)(F)F)ccc1-c1nnc(-c2cncc(C(F)(F)F)c2)s1" noted as ≥ 80%

Lab book: mortality at 200 ppm of "CCS(=O)(=O)c1cc(-c2ncccn2)cnc1-c1nnc(-c2cncc(C(F)(F)F)c2)s1" noted as ≥ 80%

Lab book: mortality at 200 ppm of "CCS(=O)(=O)c1cc(C(F)(F)F)cnc1-c1nnc(-c2cncc(C(F)(F)F)c2)s1" noted as ≥ 80%

Lab book: mortality at 200 ppm of "CCS(=O)(=O)c1cc(C(F)(F)F)ccc1-c1ncc(-c2cncc(C(F)(F)F)c2)s1" noted as ≥ 80%

Lab book: mortality at 200 ppm of "CCS(=O)(=O)c1ccc(-c2ncccn2)nc1-c1nnc(-c2cncc(C(F)(F)F)c2)s1" noted as ≥ 80%

Lab book: mortality at 200 ppm of "CCS(=O)(=O)c1cc(C2CC2)cnc1-c1nnc(-c2cncc(C(F)(F)F)c2)s1" noted as ≥ 80%

Lab book: mortality at 200 ppm of "CCS(=O)(=O)c1cc(C(F)(F)F)ccc1-c1ncc(-c2ccc(C(F)(F)F)nc2)s1" noted as ≥ 80%

Lab book: mortality at 200 ppm of "CCS(=O)(=O)c1cc(C(F)(F)F)cnc1-c1nnc(-c2cc(C(F)(F)F)ccn2)s1" noted as ≥ 80%
